assay: NCI Yeast Anticancer Drug Screen. Data for the sgs1 mgt1 strain (AID 161);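 further: 0% = growth of cultures given vehicle only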; settings: S. cerevisiae sgs1 mgt1 strain, at 50.0 µM, hits give high values
The panel holds about 79,000 compounds, 15% with a hit somewhere; the sample as a whole holds those more often.
METRIC: growth inhibition (%)
I only need the number, in %, no unit after it.

Worked examples follow.
O=C(Cl)c1ccccn1 ... 77.8
CC1=C(CO)C(=O)OC(C(C)C2CCC3C4CC5OC56C(O)C(N5CC5)=CC(=O)C6(C)C4CCC23C)C1 (configuration not stated) ... 70.2
CCC[CH2][Sn]([F])([CH2]CCC)[O][Sn]([F])([CH2]CCC)[CH2]CCC ... 98.2
O=[n+]1c2ccccc2n([O-])c2ccccc21.[Cl][Ni][Cl] ... 92.3

Ask: Fill blank: measured growth inhibition of the compound N#C[SH2+].N#C[SH2+].N#C[SH2+].N#C[SH2+].[Cu+2].c1ccc(C[P+](c2ccccc2)(c2ccccc2)c2ccccc2)cc1 is ____.
Reply: 97.9

Ask: Note, next up: O=P(CCCCP(=O)(c1ccccc1)c1ccccc1)(c1ccccc1)c1ccccc1.[Cl][Sn]([Cl])([c]1ccccc1)[c]1ccccc1
Reply: 87.3

* * *

test: NCI Yeast Anticancer Drug Screen. Data for the cln2 rad14 strain (AID 165);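 further: 0% = growth equal to vehicle treated cultures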; conditions: S. cerevisiae cln2 rad14 strain, at 5.0 µM (retest, dose inferred, filed as 0.5), hits give high values
About 79,000 compounds went through this panel and 15% of them were active in at least one assay; those are over-represented in the sample as a whole. Activity calls are given as the source filed them. No stated cut-off is given here; in the data, active means growth inhibition above about 70%; inactive means the rest.
METRIC: growth inhibition

Worked examples follow.
CC[C@](C)(O)C(=O)O[C@H]1C(=O)O[C@@H]2C[C@H]3C(C)=CC(=O)[C@@H](O)[C@]3(C)[C@H]3[C@@]4(O)OC[C@]32[C@@H]1[C@@H](C)[C@H]4O ... 33% (inactive)
[CH3][Sn]([CH3])([Cl])[c]1cc[c]([Sn]([CH3])([CH3])[Cl])cc1 ... 11% (inactive)
O=[N+]([O-])c1cc([As](Br)c2ccc(O)c([N+](=O)[O-])c2)ccc1O ... 98% (active)

Next item in the queue.
Ask: Fill blank: measured growth inhibition of the molecule C[n+]1[se]nc2cc(C(=O)c3ccccc3)ccc21 (tested in a mixture with another compound) is ____.
Reply: 96% (active)

* * *

Assay: NCI Yeast Anticancer Drug Screen. Data for the sgs1 strain (AID 173);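 further: 0% = growth of vehicle-only control cultures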
Conditions: S. cerevisiae sgs1 mutant, at 33.0 µM, hits give high values
Protocol: Growth inhibition of yeast strains with defined genetic alterations is measured as a screen for potential anti-cancer activity. Selected strains with alterations in DNA damage repair or cell cycle control were exposed to compounds and growth inhibition was measured relative to vehicle treated controls. The strain used in this assay is sgs1
Compounds without any hit were thinned out: in the full panel of roughly 79,000, 15% have a hit.
Entries and their measured growth inhibition follow.
I only need the number, in %, no unit after it.

Worked examples follow.
C[C@]12CC[C@H](O)CC1=CC[C@@H]1[C@@H]2CC[C@]2(C)C(=O)CC[C@@H]12 ... 77
COC(=O)C1C2c3ccccc3C(c3ccccc32)C1C(=O)OC (configuration not stated) ... -4
CC1CCC2(NC1)OC1CC3C4CCC5CC(OC6OC(CO)C(OC7OC(CO)C(O)C(OC8OCC(O)C(O)C8O)C7OC7OC(CO)C(O)C(O)C7O)C(O)C6O)CCC5(C)C4CCC3(C)C1C2C (configuration not stated) ... -4

Ask: Fill blank: measured growth inhibition of the molecule CNCC(O)c1ccc(O)c(O)c1.[Pt].c1ccc([PH+](c2ccccc2)c2ccccc2)cc1.c1ccc([PH+](c2ccccc2)c2ccccc2)cc1 is ____.
Reply: 86

Ask: Note, next up: Cc1c(N)nc([C@H](CC(N)=O)NC[C@H](N)C(N)=O)nc1C(=O)N[C@H](C(=O)N[C@H](C)[C@@H](O)[C@H](C)C(=O)N[C@H](C(=O)NCCc1nc(-c2nc(C(=O)NCCC[S+](C)C)cs2)cs1)[C@@H](C)O)C(OC1OC(CO)C(O)C(O)C1OC1OC(CO)C(O)C(OC(N)=O)C1O)c1cnc[nH]1 (some centres not stated)
Reply: 77
